Reported values of pKd for individual entries
biological target: mutant MGL (Homo sapiens, UniProt Q99685, L169S/L176S); test: MGL ThermoFluor assay - mutant; type: binding; details: compound concentration measured by qNMR, read-out: MGL mutant ThermoFluor qKd (using qNMR conc.)
Sequence (Q99685 whole entry L169S/L176S): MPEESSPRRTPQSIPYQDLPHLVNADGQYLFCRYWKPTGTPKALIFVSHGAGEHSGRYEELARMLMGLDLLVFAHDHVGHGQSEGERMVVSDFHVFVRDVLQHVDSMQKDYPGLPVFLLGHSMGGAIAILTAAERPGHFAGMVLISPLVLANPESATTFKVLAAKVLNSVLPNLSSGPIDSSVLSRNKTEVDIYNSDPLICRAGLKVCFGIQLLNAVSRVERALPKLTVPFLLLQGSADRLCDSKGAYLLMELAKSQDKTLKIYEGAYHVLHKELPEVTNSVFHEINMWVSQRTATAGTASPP
The quantity pKd is defined as the negative base-10 logarithm of the molar concentration.

Worked examples follow.
O=C(c1ccc(-c2ccc(C(F)(F)F)s2)cc1)N1CC(N2CCN(C(=O)c3cncs3)CC2)C1 [Cpd 1268]: 7.41
CN(C(=O)Cn1ccc2cc(C(=O)N3CC(N4CCN(C(=O)c5cscn5)CC4)C3)ccc21)c1ccccc1 [Cpd 1032]: 5.96

Give its pKd value. Item: O=C(c1cscn1)N1CCN(C2CN(C(=O)c3nn(-c4ccc(Cl)cc4Cl)c4c3CCCC4)C2)CC1 [Cpd 1304]
5.10

Could you do the same for O=C(c1ccc(-c2ccc(C(F)(F)F)s2)cc1)N1CCN(C2CN(C(=O)c3ccc[nH]3)C2)CC1 [Cpd 1162] , please?
7.85
